TEST SYSTEM: T1, P6-AA-12HAA-R
T1 chain: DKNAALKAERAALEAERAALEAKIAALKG
PROTOCOL SUMMARY: two-hybrid library CCmax;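 also: natural log of median RNA to DNA barcode read ratio; higher means stronger binding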
RUN PARAMETERS: mean of both orientations
QUANTITY NAME: interaction score

Here are 2 binders together with their reported answers.
                                     binder      quantity_name  endpoint_result
0  DENAALEAKEAALKAKEAALKAEIAALEG [P5-AA-12HAA-E]  interaction score            -2.01
1  DENAALEAKYAALKAKYAALKAEIAALEG [P5-AA-12HAA-Y]  interaction score            -1.41

P: DENAALEAKHAALKAKHAALKAEIAALEG [P5-AA-12HAA-H]
Q: DENAALEAKLAALKAKLAALKAEIAALEG [P5-AA-12HAA-L]
R: DENAALEAKVAALKAKVAALKAEIAALEG [P5-AA-12HAA-V]
S: DENAALEAKAAALKAKAAALKAEIAALEG [P5-AA-12HAA-A]
Please rank these binders by interaction score in descending order. Thanks in advance for listing the labels in the requested order.
R, Q, P, S
(R: 1.94, Q: -0.243, P: -1.68, S: -2.54)
